Biological target: Estrogen receptor beta (Homo sapiens) (UniProt Q92731)
Sequence (Q92731 whole entry, looked up, the tested form may be a part): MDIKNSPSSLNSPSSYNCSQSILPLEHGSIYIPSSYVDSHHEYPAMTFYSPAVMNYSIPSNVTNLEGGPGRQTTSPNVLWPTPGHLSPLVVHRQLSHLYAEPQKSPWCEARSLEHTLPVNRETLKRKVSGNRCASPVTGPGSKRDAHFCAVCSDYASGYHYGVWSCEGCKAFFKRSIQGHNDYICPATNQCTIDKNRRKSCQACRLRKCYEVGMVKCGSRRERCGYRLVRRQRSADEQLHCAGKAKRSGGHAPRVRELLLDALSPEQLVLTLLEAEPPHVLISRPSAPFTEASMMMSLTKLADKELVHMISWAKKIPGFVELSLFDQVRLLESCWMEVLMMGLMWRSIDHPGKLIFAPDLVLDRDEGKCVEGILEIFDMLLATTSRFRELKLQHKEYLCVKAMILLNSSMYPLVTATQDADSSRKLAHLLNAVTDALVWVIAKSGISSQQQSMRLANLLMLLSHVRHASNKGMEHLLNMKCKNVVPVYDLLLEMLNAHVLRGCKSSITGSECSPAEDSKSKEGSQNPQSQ
Assay: OT_ER_ERbERb_1440: Odyssey Thera (OT) 24-hour HEK293T Protein-Complementation Assay for Estrogen Receptor-beta/-beta Homodimer (AID 2283380);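 note: fluorescence gain from ER beta LBD homodimer complementation read by laser scanning cytometry; scored as signal increase over DMSO baseline for both agonists and antagonists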
Activity calls are given as the source filed them. Rule for the calls: active = hit-call score of the fitted dose curve at least 0.9, where 1 is the maximum; inconclusive = response in the unintended direction; inactive = score below 0.9.
Possible outcomes: active, inactive

{"MOLECULE": "CCC(=O)OC(C)(C)C1CC=C(C)CC1 (stereo not given)", "LABEL VALUE": "inactive"}
{"MOLECULE": "[O-]/[N+](=N\\O)c1ccccc1", "LABEL VALUE": "inactive"}
{"MOLECULE": "FC(F)(F)c1ccc(Cl)c(Cl)c1", "LABEL VALUE": "inactive"}
{"MOLECULE": "CCCCOCCOCCO", "LABEL VALUE": "inactive"}
{"MOLECULE": "NC(=O)c1cccnc1", "LABEL VALUE": "inactive"}
{"MOLECULE": "CC1COC(=O)O1 (stereo not given)", "LABEL VALUE": "inactive"}
{"MOLECULE": "CC(=O)C1C(=O)C=C(C)OC1=O (stereo not given)", "LABEL VALUE": "inactive"}
{"MOLECULE": "CCCCCCCCCCOC(=O)c1ccccc1C(=O)OCCCCCCCC", "LABEL VALUE": "inactive"}
{"MOLECULE": "CCCCN(CCCC)CCCCCCN(CCCC)CCCC", "LABEL VALUE": "inactive"}
{"MOLECULE": "CC(C)N(c1ccccc1)C(C)C", "LABEL VALUE": "inactive"}
{"MOLECULE": "CC(=O)OC/C=C(C)/C=C/C=C(C)/C=C/C1=C(C)CCCC1(C)C", "LABEL VALUE": "inactive"}
{"MOLECULE": "CC(C)C(=O)c1ccccc1", "LABEL VALUE": "inactive"}
{"MOLECULE": "CCC(C)C1CCCCC1=O (stereo not given)", "LABEL VALUE": "inactive"}
{"MOLECULE": "CCCCOCCOCCOCCO", "LABEL VALUE": "inactive"}
{"MOLECULE": "Cc1cccc(O)c1", "LABEL VALUE": "inactive"}
{"MOLECULE": "CCCc1ccc(O)cc1", "LABEL VALUE": "active"}
{"MOLECULE": "CCCCCCOc1ccc(O)cc1", "LABEL VALUE": "active"}
{"MOLECULE": "CC(C)(C)c1ccc(S)cc1", "LABEL VALUE": "inactive"}
{"MOLECULE": "CCCCCCCCCCO[C@@H]1O[C@H](CO)[C@@H](O)[C@H](O)[C@H]1O", "LABEL VALUE": "inactive"}
{"MOLECULE": "CN(C)C", "LABEL VALUE": "inactive"}
{"MOLECULE": "CCNC(=S)NCC", "LABEL VALUE": "inactive"}
{"MOLECULE": "c1ccc(Cc2ccccc2)cc1", "LABEL VALUE": "inactive"}
{"MOLECULE": "NCCN1CCNCC1", "LABEL VALUE": "inactive"}
{"MOLECULE": "OC[C@H]1O[C@@H](O[C@H]2[C@H](O)[C@@H](O)[C@H](O)O[C@@H]2CO)[C@H](O)[C@@H](O)[C@H]1O", "LABEL VALUE": "inactive"}
{"MOLECULE": "CCCCCCCCCCCCS", "LABEL VALUE": "inactive"}
{"MOLECULE": "CC(O)CN (stereo not given)", "LABEL VALUE": "inactive"}
{"MOLECULE": "CCCC(O)C(CC)CO (stereo not given)", "LABEL VALUE": "inactive"}
{"MOLECULE": "C1CCCNCC1", "LABEL VALUE": "inactive"}
{"MOLECULE": "CCCc1ccc(N)cc1", "LABEL VALUE": "inactive"}
{"MOLECULE": "C=CCCCCCCCCC(=O)OCC", "LABEL VALUE": "inactive"}
{"MOLECULE": "O=C(OCc1ccccc1)c1ccccc1O", "LABEL VALUE": "active"}
{"MOLECULE": "CC(=O)c1ccc2ccccc2c1", "LABEL VALUE": "inactive"}
{"MOLECULE": "CC(C)(CO)CO", "LABEL VALUE": "inactive"}
{"MOLECULE": "CCCCCCCCCO", "LABEL VALUE": "inactive"}
{"MOLECULE": "CCC(C)(CCCC(C)C)OC(C)=O (stereo not given)", "LABEL VALUE": "inactive"}
